- settings: buffer; pH 7.4; 200.0 µM
result.type: solubility kinetic

>>> val("Cc1ccc(C)c(NC(=S)N(CCc2ccncc2)C(C)C)c1")
"> 49.1 µg/mL"
>>> val("O=C1CN(C(=O)COC(=O)CCc2ccccc2)c2ccccc2N1")
"> 50.8 µg/mL"
>>> val("CC(=O)N1CC2([N+](=O)[O-])CN(C(C)=O)CC([N+](=O)[O-])(C1)C2(C)C")
"> 49.2 µg/mL"
>>> val("CC(C)(C)C1COc2ccccc2N1C(=O)c1cccc(Cl)c1 (configuration not stated)")
"< 0.7 µg/mL"
>>> val("Cc1ccc(S(=O)(=O)NC(=O)NC(C)Cc2ccccc2)cc1 (configuration not stated)")
"> 49.9 µg/mL"
>>> val("COc1ccc(/C=C/C(=O)N2CCCC2)cc1OC")
"> 39.2 µg/mL"
>>> val("COC(=O)CC(N)c1ccc(Br)cc1.Cl (configuration not stated)")
"> 44.2 µg/mL"
>>> val("CC1CCCC(NC(=O)c2ccc3c(c2)OCCO3)C1C (configuration not stated)")
"> 43.4 µg/mL"
>>> val("Cc1nc2ccccn2c1C(=O)NNC(=O)Nc1cccc(C(F)(F)F)c1")
"> 56.6 µg/mL"
>>> val("O=C(CCC1CCCN(C(=O)c2ccco2)C1)NCc1ccccc1F (configuration not stated)")
"> 53.8 µg/mL"
>>> val("O=C1CC(c2ccccc2)CC(=O)C1=CN1CCCC1 (configuration not stated)")
"> 40.4 µg/mL"
>>> val("O=C(NCC(=O)N1CCOCC1)c1ccc(Cl)cc1")
"> 42.4 µg/mL"

----------
Listed below: solubility kinetic values for each entry.
- settings: buffer; pH 7.4; 200.0 µM
result.type: solubility kinetic

>>> val("O=C1NC2=C(C(=O)CCC2)C(c2cccc([N+](=O)[O-])c2)N1 (stereo unspecified)")
"> 43.1 µg/mL"
>>> val("Cc1ccsc1C(=O)OCC(=O)N(C)C1CCCCC1")
"> 44.3 µg/mL"
>>> val("CC1CC1C(=O)OCC(=O)N(C)CC(=O)Nc1ccc(F)cc1 (stereo unspecified)")
"> 48.4 µg/mL"
>>> val("NS(=O)(=O)c1cccc(NC(=O)COC(=O)c2ccccc2SCC(=O)N2CCCC2)c1")
"> 71.6 µg/mL"
>>> val("Cc1cc(F)ccc1NC(=O)C1CSC2(C)CCC(=O)N12 (stereo unspecified)")
"> 46.3 µg/mL"
>>> val("O=C(NCCc1cnc[nH]1)c1ccc(-c2ccccc2)cc1")
"28.2 µg/mL"
>>> val("CCOC(=O)C(=CNc1cc(OC)ccc1-n1cccc1)C(=O)OCC")
"1 µg/mL"
>>> val("CS(=O)(=O)NCCCNc1ccc(C(F)(F)F)cc1[N+](=O)[O-]")
"> 51.2 µg/mL"
>>> val("Cc1[nH]c2ccccc2c1C(=O)CSC(=S)N1CCOCC1")
"2.4 µg/mL"
>>> val("CCCC1C(=O)N(Cc2ccccc2)C(=O)CC1C (stereo unspecified)")
"31.1 µg/mL"
>>> val("Clc1ccc2c(c1)Nc1ccccc1CC2")
"< 0.5 µg/mL"

----------
- settings: buffer; pH 7.4; 200.0 µM
result.type: solubility kinetic (µg/mL)

>>> val("Cc1nc(NC(=O)C2CC2)sc1C(=O)Nc1ccccc1Cl")
2.1
>>> val("CC(=O)C1=C(O)C(=O)N(c2ccc(O)cc2)C1c1ccc(Cl)cc1 (configuration not stated)")
42.6
>>> val("CN1C(=O)C2(OCCCO2)c2ccccc21")
31.6
